Method: APR_HepG2_StressKinase_24hr: Apredica 24-hour HepG2 Assay for Stress Kinase (AID 2282922)
Experimental Context: HepG2 stress kinase (phospho-c-Jun) imaging, actives raise or lower the signal
Calls of active or inactive are those of the source. The calls were made as follows: active = hit-call score of the fitted dose curve at least 0.9, where 1 is the maximum; inactive = score below 0.9.
In this exercise, the only acceptable responses are TRUE (active), FALSE (inactive)

Req: In this assay, the call recorded for COCc1cnc(C2=NC(C)(C(C)C)C(=O)N2)c(C(=O)O)c1 (configuration not stated) was what?
Resp: FALSE

Req: Another: CC1(C)C(C=C(Cl)Cl)C1C(=O)OC(C#N)c1cccc(Oc2ccccc2)c1 (configuration not stated)
Resp: FALSE

Req: Another: CCOP(=S)(OCC)Oc1nc(Cl)n(C(C)C)n1
Resp: FALSE

Req: Another: OC(c1ccc(Cl)cc1)(c1ccc(Cl)cc1)C(Cl)(Cl)Cl
Resp: TRUE

Req: Another: CC(C)Oc1cccc(NC(=O)c2ccccc2C(F)(F)F)c1
Resp: FALSE

Req: Another: Nc1c(Cl)c(Cl)nc(C(=O)O)c1Cl
Resp: FALSE

Req: Another: COc1cc(Cl)c(OC)cc1Cl
Resp: FALSE

Req: Another: O=C(O)c1c(Cl)ccc2cc(Cl)cnc12
Resp: FALSE

Req: Another: CCCCC(O)(Cn1cncn1)c1ccc(Cl)cc1Cl (configuration not stated)
Resp: FALSE

Req: Another: Clc1cccc(C(Cl)(Cl)Cl)n1
Resp: FALSE

Req: Another: CCOc1nc(F)cc2nc(S(=O)(=O)Nc3c(Cl)cccc3Cl)nn12
Resp: FALSE

Req: Another: CCOP(=O)(OCC)Oc1nc(Cl)c(Cl)cc1Cl
Resp: FALSE

---

Method: APR_HepG2_CellCycleArrest_72hr: Apredica 72-hour HepG2 Assay for Cell Cycle Arrest (AID 2282914)
Experimental Context: high-content imaging, actives raise or lower the signal
Activity calls are given as the source filed them. The calls were made as follows: active = hit-call score of the fitted dose curve at least 0.9, where 1 is the maximum; inactive = score below 0.9.
In this exercise, the only acceptable responses are T (active), F (inactive)

Req: In this assay, the call recorded for Nc1c(Cl)c(F)nc(OCC(=O)O)c1Cl was what?
Resp: F

Req: Another: OC(c1ccc(Cl)cc1)(c1ccc(Cl)cc1)C(Cl)(Cl)Cl
Resp: F

Req: Another: O=C(Nc1ccccc1-c1ccc(Cl)cc1)c1cccnc1Cl
Resp: F

Req: Another: CCOc1cc(C(C)(C)C)ccc1C1COC(c2c(F)cccc2F)=N1 (centres undefined)
Resp: F

Req: Another: Nc1cnn(-c2ccccc2)c(=O)c1Cl
Resp: F

Req: Another: CC(C)N1C(=O)c2ccccc2NS1(=O)=O
Resp: F

Req: Another: CCOC(=O)C(C)OC(=O)c1cc(Oc2ccc(C(F)(F)F)cc2Cl)ccc1[N+](=O)[O-] (centres undefined)
Resp: F

Req: Another: COC(=O)N(C(=O)N1CO[C@@]2(C(=O)OC)Cc3cc(Cl)ccc3C2=N1)c1ccc(OC(F)(F)F)cc1
Resp: F

Req: Another: CC(C)C1(C)N=C(c2ncccc2C(=O)O)NC1=O (centres undefined)
Resp: F

Req: Another: CO/N=C(/C1=NOCCO1)c1ccccc1Oc1ncnc(Oc2ccccc2Cl)c1F
Resp: F

Req: Another: Cn1c(-c2ccccc2)cc(-c2ccccc2)[n+]1C
Resp: F

Req: Another: CCCN(CC)CC1COC2(CCC(C(C)(C)C)CC2)O1 (centres undefined)
Resp: F

Req: Another: COP(=S)(OC)SCn1nnc2ccccc2c1=O
Resp: T

Req: Another: COC(=O)c1c(C(F)F)nc(C(F)(F)F)c(C2=NCCS2)c1CC(C)C
Resp: F

Req: Another: COP(=S)(OC)Oc1ccc([N+](=O)[O-])c(C)c1
Resp: F

Req: Another: Cc1c(COC(=O)[C@@H]2[C@H](/C=C(\Cl)C(F)(F)F)C2(C)C)cccc1-c1ccccc1
Resp: F

Req: Another: CC(C)=CC1C(C(=O)OCc2coc(Cc3ccccc3)c2)C1(C)C (centres undefined)
Resp: T

Req: Another: CC(C)N1C(=O)N(c2ccccc2)CSC1=NC(C)(C)C
Resp: F

Req: Another: N#CN=C1SCCN1Cc1ccc(Cl)nc1
Resp: F

Req: Another: CN=C=S
Resp: T

Req: Another: N#Cc1c(Cl)cccc1Cl
Resp: F

Req: Another: CCCCC(C#N)(Cn1cncn1)c1ccc(Cl)cc1 (centres undefined)
Resp: F

Req: Another: CC1(C)C(C(=O)OC(C#N)c2cccc(Oc3ccccc3)c2)C1(C)C (centres undefined)
Resp: F

Req: Another: CC(C)NC(=O)N1CC(=O)N(c2cc(Cl)cc(Cl)c2)C1=O
Resp: F

---

Method: APR_HepG2_MicrotubuleCSK_72hr: Apredica 72-hour HepG2 Assay for Microtubule CSK Stabilty (AID 2282919)
Experimental Context: HepG2 microtubule cytoskeleton, high-content imaging, actives raise or lower the signal
Activity calls are given as the source filed them. The calls were made as follows: active = hit-call score of the fitted dose curve at least 0.9, where 1 is the maximum; inactive = score below 0.9.
In this exercise, the only acceptable responses are class 1 (active), class 0 (inactive)

Req: In this assay, the call recorded for CNC(=O)N(C)c1nnc(C(C)(C)C)s1 was what?
Resp: class 0

Req: Another: Clc1cccc(C(Cl)(Cl)Cl)n1
Resp: class 0

Req: Another: COc1cc(Cl)c(OC)cc1Cl
Resp: class 0

Req: Another: CCCC(=NOCC)C1=C(O)CC(CC(C)SCC)CC1=O (configuration not stated)
Resp: class 0

Req: Another: Cn1c(-c2ccccc2)cc(-c2ccccc2)[n+]1C
Resp: class 0

Req: Another: CC1(C)C(C(=O)OC(C#N)c2cccc(Oc3ccccc3)c2)C1(C)C (configuration not stated)
Resp: class 1

Req: Another: CCOc1nc(F)cc2nc(S(=O)(=O)Nc3c(Cl)cccc3Cl)nn12
Resp: class 0

---

Read-out: NAD(P)H dehydrogenase [quinone] 1 (NQO1), NQO1 (gene 1728)
Method: LTEA_HepaRG_NQO1: Life Technologies and Expression Analysis (LTEA) Assay for NAD(P)H dehydrogenase [quinone] 1 (NQO1) using HepaRG (AID 2283526)
Experimental Context: mRNA level, 48 h; actives raise or lower the signal
Calls of active or inactive are those of the source. Rule for the calls: active = hit-call score of the fitted dose curve at least 0.9, where 1 is the maximum; inactive = score below 0.9.
In this exercise, the only acceptable responses are active, inactive

Req: In this assay, the call recorded for CCOP(=O)(OCC)Oc1nc(Cl)c(Cl)cc1Cl was what?
Resp: inactive

Req: Another: CCCCC(O)(Cn1cncn1)c1ccc(Cl)cc1Cl (stereo not given)
Resp: active

Req: Another: CCCC(=NOCC)C1=C(O)CC(CC(C)SCC)CC1=O (stereo not given)
Resp: inactive

Req: Another: CCNC(=O)NC(=O)C(C#N)=NOC
Resp: inactive

Req: Another: CCOP(=S)(OCC)Oc1nc(Cl)n(C(C)C)n1
Resp: inactive

Req: Another: C=CCOC(=O)C(C)(C)OC(=O)c1cc(-n2c(=O)cc(C(F)(F)F)n(C)c2=O)ccc1Cl
Resp: inactive

Req: Another: CN/C(=N\[N+](=O)[O-])NCc1cnc(Cl)s1
Resp: inactive

Req: Another: CC1(C)CCC(=Cc2ccc(Cl)cc2)C1(O)Cn1cncn1 (stereo not given)
Resp: inactive

Req: Another: Clc1cccc(C(Cl)(Cl)Cl)n1
Resp: inactive

Req: Another: Clc1nc(Cl)nc(Nc2ccccc2Cl)n1
Resp: inactive

Req: Another: COC(=O)NC(=S)Nc1ccccc1NC(=S)NC(=O)OC
Resp: inactive

Req: Another: CS(=O)(=O)c1ccc(C(=O)C2C(=O)CCCC2=O)c([N+](=O)[O-])c1
Resp: inactive

Req: Another: CCCCOCN(C(=O)CCl)c1c(CC)cccc1CC
Resp: inactive

Req: Another: CSC(=O)c1c(C(F)F)nc(C(F)(F)F)c(C(=O)SC)c1CC(C)C
Resp: inactive

Req: Another: Nc1cnn(-c2ccccc2)c(=O)c1Cl
Resp: inactive

Req: Another: CC1(C)CON(Cc2ccccc2Cl)C1=O
Resp: inactive

Req: Another: Cc1ccc(N=CN(C)C=Nc2ccc(C)cc2C)c(C)c1
Resp: inactive

Req: Another: Nc1c(Cl)c(F)nc(OCC(=O)O)c1Cl
Resp: inactive

Req: Another: COP(=S)(OC)Oc1ccc([N+](=O)[O-])c(C)c1
Resp: inactive

Req: Another: COC(=O)c1c(C(F)F)nc(C(F)(F)F)c(C2=NCCS2)c1CC(C)C
Resp: inactive

Req: Another: CS(=O)(=O)c1cc(C(F)(F)F)ccc1C(=O)c1cnoc1C1CC1
Resp: inactive

Req: Another: CNC(=O)Oc1cccc2ccccc12
Resp: inactive

Req: Another: COc1cc(OC)nc(NC(=O)NS(=O)(=O)c2ncccc2OCC(F)(F)F)n1
Resp: inactive

Req: Another: CCOC(=O)C(C)OC(=O)c1cc(Oc2ccc(C(F)(F)F)cc2Cl)ccc1[N+](=O)[O-] (stereo not given)
Resp: inactive

Req: Another: N#CN=C1SCCN1Cc1ccc(Cl)nc1
Resp: inactive
